Reference source for all entries: BindingDB's records for patent US9682141

Measured on: Phosphatidylinositol 4,5-bisphosphate 3-kinase catalytic subunit alpha isoform (Homo sapiens)
Sequence (P42336 whole entry, canonical isoform): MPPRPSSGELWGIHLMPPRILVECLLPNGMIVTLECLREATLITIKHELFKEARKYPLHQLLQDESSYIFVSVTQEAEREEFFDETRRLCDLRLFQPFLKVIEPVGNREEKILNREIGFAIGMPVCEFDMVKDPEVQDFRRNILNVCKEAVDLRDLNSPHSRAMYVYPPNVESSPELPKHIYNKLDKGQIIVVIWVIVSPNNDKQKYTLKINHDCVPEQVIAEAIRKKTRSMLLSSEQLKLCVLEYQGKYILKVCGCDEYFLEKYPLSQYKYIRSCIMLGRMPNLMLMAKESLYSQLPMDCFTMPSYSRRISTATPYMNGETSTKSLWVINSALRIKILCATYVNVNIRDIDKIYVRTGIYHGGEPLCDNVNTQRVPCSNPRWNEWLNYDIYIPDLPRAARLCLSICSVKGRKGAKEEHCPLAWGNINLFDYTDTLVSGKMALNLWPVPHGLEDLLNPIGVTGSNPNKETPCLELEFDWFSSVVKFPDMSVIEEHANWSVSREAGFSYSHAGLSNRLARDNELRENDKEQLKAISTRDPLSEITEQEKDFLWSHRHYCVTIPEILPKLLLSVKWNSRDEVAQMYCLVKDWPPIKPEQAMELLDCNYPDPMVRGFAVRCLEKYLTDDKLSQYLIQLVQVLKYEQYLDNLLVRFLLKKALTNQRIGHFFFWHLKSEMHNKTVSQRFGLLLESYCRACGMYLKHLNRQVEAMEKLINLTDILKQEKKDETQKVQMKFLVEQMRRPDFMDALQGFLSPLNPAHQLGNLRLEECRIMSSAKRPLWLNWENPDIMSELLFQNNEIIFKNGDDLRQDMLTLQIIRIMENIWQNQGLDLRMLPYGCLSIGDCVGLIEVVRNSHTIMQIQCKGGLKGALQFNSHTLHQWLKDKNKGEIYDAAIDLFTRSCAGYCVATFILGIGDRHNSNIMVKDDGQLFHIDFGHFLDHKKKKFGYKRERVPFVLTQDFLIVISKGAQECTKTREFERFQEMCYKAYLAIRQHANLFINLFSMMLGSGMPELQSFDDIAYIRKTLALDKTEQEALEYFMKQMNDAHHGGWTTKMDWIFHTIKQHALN
Assay protocol: PI 3-Kinase HTRF Assay
Conditions: 25 °C
Measured metric: IC50

What the record says about Nc1nc2cc(-c3ccc4ncn(-c5ccccc5)c4c3)ccc2o1 : IC50 is < 100 nM

---

Measured on: Phosphatidylinositol 4,5-bisphosphate 3-kinase catalytic subunit beta isoform (Homo sapiens, UniProt P42338)
Sequence (P42338 whole entry, canonical isoform): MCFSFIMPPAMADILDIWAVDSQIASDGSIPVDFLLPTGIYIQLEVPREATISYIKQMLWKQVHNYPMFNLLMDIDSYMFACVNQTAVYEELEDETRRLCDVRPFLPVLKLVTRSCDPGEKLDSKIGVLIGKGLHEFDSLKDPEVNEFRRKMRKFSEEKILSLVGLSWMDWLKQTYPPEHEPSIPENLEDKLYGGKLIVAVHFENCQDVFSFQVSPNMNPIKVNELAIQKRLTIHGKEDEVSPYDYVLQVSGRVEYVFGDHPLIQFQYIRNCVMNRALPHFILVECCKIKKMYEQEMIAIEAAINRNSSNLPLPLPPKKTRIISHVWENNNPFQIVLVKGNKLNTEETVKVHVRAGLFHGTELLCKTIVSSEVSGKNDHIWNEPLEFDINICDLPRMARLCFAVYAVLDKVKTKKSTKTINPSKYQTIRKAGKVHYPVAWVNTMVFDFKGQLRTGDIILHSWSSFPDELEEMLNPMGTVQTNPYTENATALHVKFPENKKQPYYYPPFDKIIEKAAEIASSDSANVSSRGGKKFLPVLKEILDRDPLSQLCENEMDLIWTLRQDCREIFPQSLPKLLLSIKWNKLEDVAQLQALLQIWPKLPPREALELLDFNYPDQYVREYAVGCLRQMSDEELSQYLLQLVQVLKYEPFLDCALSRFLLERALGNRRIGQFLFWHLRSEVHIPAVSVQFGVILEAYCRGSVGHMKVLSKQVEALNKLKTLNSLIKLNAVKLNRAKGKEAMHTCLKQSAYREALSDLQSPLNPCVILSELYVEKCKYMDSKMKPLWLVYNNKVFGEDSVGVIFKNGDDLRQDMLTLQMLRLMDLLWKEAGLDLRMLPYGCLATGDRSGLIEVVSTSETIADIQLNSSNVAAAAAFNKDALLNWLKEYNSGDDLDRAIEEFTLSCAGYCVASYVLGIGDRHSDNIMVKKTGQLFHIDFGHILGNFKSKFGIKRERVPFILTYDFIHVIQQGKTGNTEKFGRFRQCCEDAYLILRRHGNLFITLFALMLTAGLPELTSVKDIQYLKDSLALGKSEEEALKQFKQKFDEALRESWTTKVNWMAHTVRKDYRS
Assay protocol: PI 3-Kinase HTRF Assay
Conditions: 25 °C
pIC50: −log10 of the molar value.
Measured metric: pIC50

The recorded pIC50 for Nc1nc2cc(-c3ccc4ncn(-c5ccccc5)c4c3)ccc2o1 is > 5.00

Looking up Nc1nc2cc(-c3ccc4ncc(-c5ccncc5)n4c3)ccc2o1 , I found its pIC50 recorded as > 5.00
